Protocol Summary: Inhibition of c-terminally truncated N-terminal 8xHis-tagged human Bcl-xL deletion mutant expressed in Escherichia coli BL21 (DE3) after 2 hrs by fluorescence polarization assay
Assay Metric: log10 of IC50 (log10 of the value in µM)
Recall that a logarithmic scale is used here: each number is log10 of IC50 in µM.

Find the recorded log10 of IC50 belonging to `Cc1c(C(=O)NCCCN2CCN(C)CC2)c(-c2cccc(N3CCN(c4ccc(NS(=O)(=O)c5cccc(OC(C)C)c5)cc4)CC3)c2)c(-c2ccc(Cl)cc2)n1C` and report it.
0.02

Sample `Cc1c(C(=O)O)c(-c2cccc(N3CCN(c4ccc(NS(=O)(=O)c5ccc(N[C@H](CCN6CCCC6)CSc6ccccc6)c(S(=O)(=O)C(F)(F)F)c5)cc4)CC3)c2)c(-c2ccc(Cl)cc2)n1C` — what was its log10 of IC50?
-1.97

Any idea what its log10 of IC50 is? The compound is `Cc1c(C(=O)O)c(-c2cccc(N3CCN(c4ccc(NS(=O)(=O)c5ccc(N[C@H](CCN6CCCCC6)CSc6ccccc6)c(S(=O)(=O)C(F)(F)F)c5)cc4)CC3)c2)c(-c2ccc(Cl)cc2)n1C`
-1.92

Query (compound): `Cc1c(C(=O)O)c(-c2cccc(N3CCN(c4ccc(NS(=O)(=O)c5ccc(N[C@H](CCN6CCC(O)CC6)CSc6ccccc6)c(S(=O)(=O)C(F)(F)F)c5)cc4)CC3)c2)c(-c2ccc(Cl)cc2)n1C(C)C` ; field requested: log10 of IC50
-2.41

State the recorded log10 of IC50 for this entry: `Cc1c(C(=O)NCCCN2CCN(C)CC2)c(-c2cccc(N3CCN(c4ccc(NS(=O)(=O)c5cccc(Cl)c5)cc4)CC3)c2)c(-c2ccc(Cl)cc2)n1C`
0.03

Need log10 of IC50 of `Cc1c(C(=O)NCCCN2CCN(C)CC2)c(-c2cccc(N3CCN(c4ccc(NS(=O)(=O)c5cccc(C(C)(C)C)c5)cc4)CC3)c2)c(-c2ccc(Cl)cc2)n1C` , thanks.
-0.13

Which log10 of IC50 value belongs to `Cc1c(C(=O)NCCCN2CCN(C)CC2)c(-c2cccc(N3CCN(c4ccc(NS(=O)(=O)c5ccccc5)cc4)CC3)c2)c(-c2ccc(Cl)cc2)n1C` ?
0.57

Find the recorded log10 of IC50 belonging to `CCOc1cccc(S(=O)(=O)Nc2ccc(N3CCN(c4cccc(-c5c(C(=O)NCCCN6CCN(C)CC6)c(C)n(C)c5-c5ccc(Cl)cc5)c4)CC3)cc2)c1` and report it.
0.56

====

IC50 for assorted molecules
Measured On: Apoptosis regulator Bcl-2 (Homo sapiens)
Protocol Summary: Inhibition of N-terminal 6xHis-tagged human Bcl-2 expressed in Escherichia coli BL21 (DE3) after 2 hrs by fluorescence polarization assay

Below: 5 molecules and their reported IC50.
>>> val("Cc1c(C(=O)O)c(-c2cccc(N3CCN(c4ccc(NS(=O)(=O)c5ccc(N[C@H](CCN(C)C)CSc6ccccc6)c(S(=O)(=O)C(F)(F)F)c5)cc4)CC3)c2)c(-c2ccc(Cl)cc2)n1C")
"9.2 nM"
>>> val("Cc1c(C(=O)O)c(-c2cccc(N3CCN(c4ccc(NS(=O)(=O)c5ccc(N[C@H](CCN6CCC(O)CC6)CSc6ccccc6)c(S(=O)(=O)C(F)(F)F)c5)cc4)CC3)c2)c(-c2ccc(Cl)cc2)n1C")
"10.2 nM"
>>> val("Cc1c(C(=O)O)c(-c2cccc(N3CCN(c4ccc(NS(=O)(=O)c5ccc(N[C@H](CCN6CCCCC6)CSc6ccccc6)c(S(=O)(=O)C(F)(F)F)c5)cc4)CC3)c2)c(-c2ccc(Cl)cc2)n1C")
"15.6 nM"
>>> val("Cc1c(C(=O)O)c(-c2cccc(N3CCN(c4ccc(NS(=O)(=O)c5ccc(N[C@H](CCN6CCC(C)(O)CC6)CSc6ccccc6)c(S(=O)(=O)C(F)(F)F)c5)cc4)CC3)c2)c(-c2ccc(Cl)cc2)n1C")
"18.6 nM"
>>> val("CCn1c(C)c(C(=O)O)c(-c2cccc(N3CCN(c4ccc(NS(=O)(=O)c5ccc(N[C@H](CCN6CCC(O)CC6)CSc6ccccc6)c(S(=O)(=O)C(F)(F)F)c5)cc4)CC3)c2)c1-c1ccc(Cl)cc1")
"5.4 nM"

Kindly state the measured IC50 obtained for `Cc1c(C(=O)O)c(-c2cccc(N3CCN(c4ccc(NS(=O)(=O)c5ccc(N[C@H](CCN6CCOCC6)CSc6ccccc6)c(S(=O)(=O)C(F)(F)F)c5)cc4)CC3)c2)c(-c2ccc(Cl)cc2)n1C` with Apoptosis regulator Bcl-2 (Homo sapiens).
55.2 nM

Give Apoptosis regulator Bcl-2 (Homo sapiens) IC50 for `Cc1c(C(=O)O)c(-c2cccc(N3CCN(c4ccc(NS(=O)(=O)c5ccc(N[C@H](CCN6CCC(O)CC6)CSc6ccccc6)c(S(=O)(=O)C(F)(F)F)c5)cc4)CC3)c2)c(-c2ccc(Cl)cc2)n1C(C)C`
4 nM

====

// values below are reported pKi
Measured On: Apoptosis regulator Bcl-2 (Homo sapiens, UniProt P10415)
Sequence (P10415 whole entry): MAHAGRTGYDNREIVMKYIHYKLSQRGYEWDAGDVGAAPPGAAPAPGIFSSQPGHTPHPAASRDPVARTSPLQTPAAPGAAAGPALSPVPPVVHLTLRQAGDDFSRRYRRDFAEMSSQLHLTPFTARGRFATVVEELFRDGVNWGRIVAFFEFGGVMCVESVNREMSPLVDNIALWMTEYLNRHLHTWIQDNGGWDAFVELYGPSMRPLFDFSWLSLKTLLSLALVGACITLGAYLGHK
Reminder that pKi is minus the log10 of a molar concentration.

Illustrative cases are given below, each with its answer.
>>> val("Cc1c(C(=O)O)c(-c2cccc(N3CCN(c4ccc(NS(=O)(=O)c5ccc(N[C@H](CCN6CCC(O)CC6)CSc6ccccc6)c(S(=O)(=O)C(F)(F)F)c5)cc4)CC3)c2)c(-c2ccc(Cl)cc2)n1C(C)C")
9.10
>>> val("Cc1c(C(=O)O)c(-c2cccc(N3CCN(c4ccc(NS(=O)(=O)c5ccc(N[C@H](CCN6CCOCC6)CSc6ccccc6)c(S(=O)(=O)C(F)(F)F)c5)cc4)CC3)c2)c(-c2ccc(Cl)cc2)n1C")
7.85
>>> val("CCn1c(C)c(C(=O)O)c(-c2cccc(N3CCN(c4ccc(NS(=O)(=O)c5ccc(N[C@H](CCN6CCC(O)CC6)CSc6ccccc6)c(S(=O)(=O)C(F)(F)F)c5)cc4)CC3)c2)c1-c1ccc(Cl)cc1")
8.92
>>> val("Cc1c(C(=O)O)c(-c2cccc(N3CCN(c4ccc(NS(=O)(=O)c5ccc(N[C@H](CCN6CCC(O)CC6)CSc6ccccc6)c(S(=O)(=O)C(F)(F)F)c5)cc4)CC3)c2)c(-c2ccc(Cl)cc2)n1C")
8.62
>>> val("Cc1c(C(=O)O)c(-c2cccc(N3CCN(c4ccc(NS(=O)(=O)c5ccc(N[C@H](CCN(C)C)CSc6ccccc6)c(S(=O)(=O)C(F)(F)F)c5)cc4)CC3)c2)c(-c2ccc(Cl)cc2)n1C")
8.68

Query (molecule): `Cc1c(C(=O)O)c(-c2cccc(N3CCN(c4ccc(NS(=O)(=O)c5ccc(N[C@H](CCN6CC(O)C6)CSc6ccccc6)c(S(=O)(=O)C(F)(F)F)c5)cc4)CC3)c2)c(-c2ccc(Cl)cc2)n1C` ; field requested: pKi
8.77

I am curious: what pKi value has been reported for `Cc1c(C(=O)O)c(-c2cccc(N3CCN(c4ccc(NS(=O)(=O)c5ccc(N[C@H](CCN6CCCC6)CSc6ccccc6)c(S(=O)(=O)C(F)(F)F)c5)cc4)CC3)c2)c(-c2ccc(Cl)cc2)n1C` ?
8.74

====

Protocol Summary: Cytotoxicity against human NCI-H146 cells assessed as growth inhibition after 4 days by WST-8 assay
Assay type: functional, cell-based
Assay Conditions: NCI-H146, 96 h
Below is a list of entries, each paired with its recorded pIC50 value.
Reminder that pIC50 means the negative base-10 logarithm of the concentration expressed in mol/L.

Reference set (5 entries):
>>> val("Cc1c(C(=O)O)c(-c2cccc(N3CCN(c4ccc(NS(=O)(=O)c5ccc(N[C@H](CCN6CCCCC6)CSc6ccccc6)c(S(=O)(=O)C(F)(F)F)c5)cc4)CC3)c2)c(-c2ccc(Cl)cc2)n1C")
6.88
>>> val("CCCCn1c(C)c(C(=O)O)c(-c2cccc(N3CCN(c4ccc(NS(=O)(=O)c5ccc(N[C@H](CCN6CCC(O)CC6)CSc6ccccc6)c(S(=O)(=O)C(F)(F)F)c5)cc4)CC3)c2)c1-c1ccc(Cl)cc1")
6.89
>>> val("CCCn1c(C)c(C(=O)O)c(-c2cccc(N3CCN(c4ccc(NS(=O)(=O)c5ccc(N[C@H](CCN6CCC(O)CC6)CSc6ccccc6)c(S(=O)(=O)C(F)(F)F)c5)cc4)CC3)c2)c1-c1ccc(Cl)cc1")
6.89
>>> val("Cc1c(C(=O)O)c(-c2cccc(N3CCN(c4ccc(NS(=O)(=O)c5ccc(N[C@H](CCN6CCC(O)CC6)CSc6ccccc6)c(S(=O)(=O)C(F)(F)F)c5)cc4)CC3)c2)c(-c2ccc(Cl)cc2)n1C")
6.97
>>> val("Cc1c(C(=O)O)c(-c2cccc(N3CCN(c4ccc(NS(=O)(=O)c5ccc(N[C@H](CCN6CCC6)CSc6ccccc6)c(S(=O)(=O)C(F)(F)F)c5)cc4)CC3)c2)c(-c2ccc(Cl)cc2)n1C")
7.07

// moving on: another record for pIC50
Bench note: what pIC50 did `Cc1c(C(=O)O)c(-c2cccc(N3CCN(c4ccc(NS(=O)(=O)c5ccc(N[C@H](CCN6CCCC6)CSc6ccccc6)c(S(=O)(=O)C(F)(F)F)c5)cc4)CC3)c2)c(-c2ccc(Cl)cc2)n1C` show?
7.06
